The measurements presented in this section are drawn from ChEMBL document CHEMBL6134890.

# Tested on: BEAS-2B
# assay details: Cytotoxicity against human BEAS-2B cells at 2 to 256 uM measured after 24 hrs by CCK-8 method
# Assay type: toxicity, cell-based
# test parameters: dose 2-256 µM
Peptide text beside a SMILES is read from it.
assay metric: Activity

NCCCC[C@H](NC(=O)[C@H](Cc1ccccc1)NC(=O)[C@H](CCCCN)NC(=O)[C@H](Cc1ccccc1)NC(=O)[C@H](CCCCN)NC(=O)[C@@H]1CCCN1C(=O)[C@H](Cc1c[nH]c2ccccc12)NC(=O)[C@H](Cc1c[nH]c2ccccc12)NC(=O)[C@H](Cc1c[nH]c2ccccc12)NC(=O)[C@@H]1CCCN1C(=O)[C@H](CCCCN)NC(=O)[C@H](Cc1ccccc1)NC(=O)[C@H](CCCCN)NC(=O)[C@H](Cc1ccccc1)NC(=O)[C@@H](N)CCCCN)C(N)=O (H-KFKFKPWWWPKFKFK-NH2) = Toxic
CC(C)[C@H](NC(=O)[C@H](CCCCN)NC(=O)[C@@H](NC(=O)[C@H](CCCCN)NC(=O)[C@H](Cc1ccccc1)NC(=O)[C@@H]1CCCN1C(=O)[C@H](Cc1c[nH]c2ccccc12)NC(=O)[C@H](Cc1c[nH]c2ccccc12)NC(=O)[C@H](Cc1c[nH]c2ccccc12)NC(=O)[C@@H]1CCCN1C(=O)[C@H](Cc1ccccc1)NC(=O)[C@H](CCCCN)NC(=O)[C@@H](NC(=O)[C@H](CCCCN)NC(=O)[C@@H](NC(=O)[C@@H](N)CCCCN)C(C)C)C(C)C)C(C)C)C(=O)N[C@@H](CCCCN)C(N)=O (H-KVKVKFPWWWPFKVKVK-NH2) = Toxic
CC[C@H](C)[C@H](NC(=O)[C@H](CCCCN)NC(=O)[C@@H](NC(=O)[C@H](CCCCN)NC(=O)[C@@H]1CCCN1C(=O)[C@H](Cc1c[nH]c2ccccc12)NC(=O)[C@H](Cc1c[nH]c2ccccc12)NC(=O)[C@H](Cc1c[nH]c2ccccc12)NC(=O)[C@@H]1CCCN1C(=O)[C@H](CCCCN)NC(=O)[C@@H](NC(=O)[C@H](CCCCN)NC(=O)[C@@H](NC(=O)[C@@H](N)CCCCN)[C@@H](C)CC)[C@@H](C)CC)[C@@H](C)CC)C(=O)N[C@@H](CCCCN)C(N)=O (H-KIKIKPWWWPKIKIK-NH2) = Toxic

---

# System: L02
# assay details: Cytotoxicity against human LO2 cells at 2 to 256 uM measured after 24 hrs by CCK-8 method
# Assay type: toxicity, cell-based
# test parameters: l02, 24 h, dose 2-256 µM
Peptide text beside a SMILES is read from it.
assay metric: Activity

CC(C)C[C@H](NC(=O)[C@H](CCCCN)NC(=O)[C@H](CC(C)C)NC(=O)[C@H](CCCCN)NC(=O)[C@@H]1CCCN1C(=O)[C@H](Cc1c[nH]c2ccccc12)NC(=O)[C@H](Cc1c[nH]c2ccccc12)NC(=O)[C@H](Cc1c[nH]c2ccccc12)NC(=O)[C@@H]1CCCN1C(=O)[C@H](CCCCN)NC(=O)[C@H](CC(C)C)NC(=O)[C@H](CCCCN)NC(=O)[C@H](CC(C)C)NC(=O)[C@@H](N)CCCCN)C(=O)N[C@@H](CCCCN)C(N)=O (H-KLKLKPWWWPKLKLK-NH2) = Toxic
CC(C)[C@H](NC(=O)[C@H](CCCCN)NC(=O)[C@@H](NC(=O)[C@H](CCCCN)NC(=O)[C@H](Cc1ccccc1)NC(=O)[C@@H]1CCCN1C(=O)[C@H](Cc1c[nH]c2ccccc12)NC(=O)[C@H](Cc1c[nH]c2ccccc12)NC(=O)[C@H](Cc1c[nH]c2ccccc12)NC(=O)[C@@H]1CCCN1C(=O)[C@H](Cc1ccccc1)NC(=O)[C@H](CCCCN)NC(=O)[C@@H](NC(=O)[C@H](CCCCN)NC(=O)[C@@H](NC(=O)[C@@H](N)CCCCN)C(C)C)C(C)C)C(C)C)C(=O)N[C@@H](CCCCN)C(N)=O (H-KVKVKFPWWWPFKVKVK-NH2) = Toxic
CC[C@H](C)[C@H](NC(=O)[C@H](CCCCN)NC(=O)[C@@H](NC(=O)[C@H](CCCCN)NC(=O)[C@@H]1CCCN1C(=O)[C@H](Cc1c[nH]c2ccccc12)NC(=O)[C@H](Cc1c[nH]c2ccccc12)NC(=O)[C@H](Cc1c[nH]c2ccccc12)NC(=O)[C@@H]1CCCN1C(=O)[C@H](CCCCN)NC(=O)[C@@H](NC(=O)[C@H](CCCCN)NC(=O)[C@@H](NC(=O)[C@@H](N)CCCCN)[C@@H](C)CC)[C@@H](C)CC)[C@@H](C)CC)C(=O)N[C@@H](CCCCN)C(N)=O (H-KIKIKPWWWPKIKIK-NH2) = Toxic

---

For each of the molecules below, state its MIC.
# Test system: Klebsiella pneumoniae
# assay details: Antimicrobial activity against multi-drug resistant Klebsiella pneumoniae assessed as reduction in bacterial growth by broth dilution method
# Format: functional
Peptide text beside a SMILES is read from it.
Give the number; µM is assumed, so skip it.

Req: Identify measured MIC associated with CO[C@H]1/C=C/O[C@@]2(C)Oc3c(C)c(O)c4c(O)c(c(/C=N/N5CCN(C)CC5)c(O)c4c3C2=O)NC(=O)/C(C)=C\C=C\[C@H](C)[C@H](O)[C@@H](C)[C@@H](O)[C@@H](C)[C@H](OC(C)=O)[C@@H]1C
Resp: 16

Req: Identify measured MIC associated with NCCCC[C@H](NC(=O)[C@H](Cc1c[nH]c2ccccc12)NC(=O)[C@H](CCCCN)NC(=O)[C@H](Cc1ccccc1)NC(=O)[C@@H]1CCCN1C(=O)[C@H](Cc1c[nH]c2ccccc12)NC(=O)[C@H](Cc1c[nH]c2ccccc12)NC(=O)[C@H](Cc1c[nH]c2ccccc12)NC(=O)[C@@H]1CCCN1C(=O)[C@H](Cc1ccccc1)NC(=O)[C@H](CCCCN)NC(=O)[C@H](Cc1c[nH]c2ccccc12)NC(=O)[C@H](CCCCN)NC(=O)[C@@H](N)Cc1c[nH]c2ccccc12)C(=O)N[C@@H](Cc1c[nH]c2ccccc12)C(N)=O (H-WKWKFPWWWPFKWKW-NH2)
Resp: 256

Req: Identify measured MIC associated with CC[C@H](C)[C@H](NC(=O)[C@H](CCCCN)NC(=O)[C@@H](NC(=O)[C@@H]1CCCN1C(=O)[C@H](Cc1c[nH]c2ccccc12)NC(=O)[C@H](Cc1c[nH]c2ccccc12)NC(=O)[C@H](Cc1c[nH]c2ccccc12)NC(=O)[C@@H]1CCCN1C(=O)[C@@H](NC(=O)[C@H](CCCCN)NC(=O)[C@@H](NC(=O)[C@@H](N)CCCCN)[C@@H](C)CC)[C@@H](C)CC)[C@@H](C)CC)C(=O)N[C@@H](CCCCN)C(N)=O (H-KIKIPWWWPIKIK-NH2)
Resp: 32

---

# Test system: Klebsiella pneumoniae
# assay details: Antimicrobial activity against multi-drug resistant Klebsiella pneumoniae assessed as reduction in bacterial growth by broth dilution method
# Type: functional
Peptide text beside a SMILES is read from it.
For each of the compounds below, state its MIC.
Kindly report the value followed by its unit.

Req: Identify measured MIC obtained with Klebsiella pneumoniae for CC[C@H](C)[C@H](N)C(=O)N[C@@H](CCCCN)C(=O)N[C@H](C(=O)N[C@@H](CCCCN)C(=O)N[C@@H](Cc1ccccc1)C(=O)N1CCC[C@H]1C(=O)N[C@@H](Cc1c[nH]c2ccccc12)C(=O)N[C@@H](Cc1c[nH]c2ccccc12)C(=O)N[C@@H](Cc1c[nH]c2ccccc12)C(=O)N1CCC[C@H]1C(=O)N[C@@H](Cc1ccccc1)C(=O)N[C@@H](CCCCN)C(=O)N[C@H](C(=O)N[C@@H](CCCCN)C(=O)N[C@H](C(N)=O)[C@@H](C)CC)[C@@H](C)CC)[C@@H](C)CC (H-IKIKFPWWWPFKIKI-NH2) .
Resp: 256 µM

Req: Identify measured MIC obtained with Klebsiella pneumoniae for CC[C@H](C)[C@H](NC(=O)[C@H](CCCCN)NC(=O)[C@@H](NC(=O)[C@H](Cc1ccccc1)NC(=O)[C@@H]1CCCN1C(=O)[C@H](Cc1c[nH]c2ccccc12)NC(=O)[C@H](Cc1c[nH]c2ccccc12)NC(=O)[C@H](Cc1c[nH]c2ccccc12)NC(=O)[C@@H]1CCCN1C(=O)[C@H](Cc1ccccc1)NC(=O)[C@@H](NC(=O)[C@H](CCCCN)NC(=O)[C@@H](NC(=O)[C@@H](N)CCCCN)[C@@H](C)CC)[C@@H](C)CC)[C@@H](C)CC)C(=O)N[C@@H](CCCCN)C(N)=O (H-KIKIFPWWWPFIKIK-NH2) .
Resp: 256 µM

---

# assay details: Hemolytic activity in human Red blood cell assessed as hemolysis incubated for 1 hrs by microplate reader based analysis
# Type: toxicity
# test parameters: erythrocyte
Peptide text beside a SMILES is read from it.
For each of the molecules below, state its HC10.
Give the number; µM is assumed, so skip it.

Req: Identify measured HC10 associated with CC(C)[C@H](NC(=O)[C@H](CCCCN)NC(=O)[C@@H](NC(=O)[C@H](CCCCN)NC(=O)[C@H](Cc1ccccc1)NC(=O)[C@@H]1CCCN1C(=O)[C@H](Cc1c[nH]c2ccccc12)NC(=O)[C@H](Cc1c[nH]c2ccccc12)NC(=O)[C@H](Cc1c[nH]c2ccccc12)NC(=O)[C@@H]1CCCN1C(=O)[C@H](Cc1ccccc1)NC(=O)[C@H](CCCCN)NC(=O)[C@@H](NC(=O)[C@H](CCCCN)NC(=O)[C@@H](NC(=O)[C@@H](N)CCCCN)C(C)C)C(C)C)C(C)C)C(=O)N[C@@H](CCCCN)C(N)=O (H-KVKVKFPWWWPFKVKVK-NH2)
Resp: 243.97

Req: Identify measured HC10 associated with NCCCC[C@H](NC(=O)[C@H](Cc1c[nH]c2ccccc12)NC(=O)[C@H](CCCCN)NC(=O)[C@@H]1CCCN1C(=O)[C@H](Cc1c[nH]c2ccccc12)NC(=O)[C@H](Cc1c[nH]c2ccccc12)NC(=O)[C@H](Cc1c[nH]c2ccccc12)NC(=O)[C@@H]1CCCN1C(=O)[C@H](CCCCN)NC(=O)[C@H](Cc1c[nH]c2ccccc12)NC(=O)[C@H](CCCCN)NC(=O)[C@@H](N)Cc1c[nH]c2ccccc12)C(=O)N[C@@H](Cc1c[nH]c2ccccc12)C(N)=O (H-WKWKPWWWPKWKW-NH2)
Resp: 28.58
